assay: chemical recovery from spiked human plasma; higher = better extraction; settings: pooled human plasma; extraction method: SPE only (HLB 96-well), PES comparison experiment;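 also: plasma spiked with over 400 chemicals, quantified by LC-HRMS and GC-HRMS via internal standard calibration against matrix-matched unspiked plasma extracts plus spike mix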
Heads up, the class ranges for chemical recovery are bottom end (below 40%), midrange (40% to below 50%), top end (50% or more)

For orientation, consider the following solved cases.
compound	class
CC[C@H]1OC(=O)C[C@@H](O)[C@H](C)[C@@H](O[C@@H]2O[C@H](C)[C@@H](O[C@H]3C[C@@](C)(O)[C@@H](O)[C@H](C)O3)[C@H](N(C)C)[C@H]2O)[C@@H](CC=O)C[C@@H](C)C(=O)/C=C/C(C)=C/[C@@H]1CO[C@@H]1O[C@H](C)[C@@H](O)[C@@H](OC)[C@H]1OC	bottom end
O=C(c1ccc(OCCN2CCCCC2)cc1)c1c(-c2ccc(O)cc2)sc2cc(O)ccc12	midrange
C[C@]12CCC(=O)C=C1[C@@H]1C[C@@H]1[C@H]1[C@@H]3[C@@H]4C[C@@H]4[C@@]4(CCC(=O)O4)[C@@]3(C)CC[C@@H]12	midrange
CCCc1nc(C)c2c(=O)nc(-c3cc(S(=O)(=O)N4CCN(CC)CC4)ccc3OCC)[nH]n12	bottom end
COc1nc(C)nc(NC(=O)NS(=O)(=O)c2ccccc2CCC(F)(F)F)n1	midrange
CC(C)(C#N)c1cc(Cn2cncn2)cc(C(C)(C)C#N)c1	midrange
C=CCC1(C(C)CCC)C(=O)NC(=O)NC1=O (stereo unspecified)	top end
O=C(O)c1ccccc1O	top end

# classify by chemical recovery band: Cc1cc(C2CCCCC2)n(O)c(=O)c1 midrange

Which class holds CCCCCCCCCCCCCC(=O)NCCC[N+](C)(C)CCCS(=O)(=O)[O-] ? bottom end

Kindly identify the class of N#Cc1nn(-c2c(Cl)cc(C(F)(F)F)cc2Cl)c(N)c1SC(F)(F)F [Fipronil sulfide] . top end
